All figures here come from patent US12122785B2.

Test system: TYK2 pseudokinase (JH2); IL-23-stimulated HEK-Blue IL-23 cells
assay: HEK-Blue IL-23 reporter assay (STAT3-inducible SEAP) for profiling TYK2 pseudokinase (JH2) inhibition
Type: cell-based
condition notes: 10 ng/mL human recombinant IL-23, SEAP readout, read-out: IL23 (TYK2 inhibitory activity, IC50)
pIC50: −log10 of the molar value.
readout label: pIC50

See these solved cases before continuing.
[[record]]
compound = "[2H]C([2H])([2H])NC(=O)c1nnc(NC(=O)NC)cc1Nc1nccc2c1N(C)[C@@H](C)c1cn(C)nc1-2 (single isomer, unassigned)"
result = "> 7.52"

[[record]]
compound = "[2H]C([2H])([2H])NC(=O)c1cnc(NC(=O)C2CC2)cc1Nc1nccc2c1N(C)C([2H])([2H])c1cc(C)nn1-2"
result = "> 7.52"

[[record]]
compound = "[2H]C([2H])([2H])NC(=O)c1cnc(NC(=O)C2(O)CC2)cc1Nc1cccc2c1N(C)Cc1cn(C)nc1-2"
result = "6.52 to 7.52"

[[record]]
compound = "Cn1cc2c(n1)-c1cccc(Nc3cc(Nc4ccc(F)cn4)nnc3C(N)=O)c1OC2"
result = "> 7.52"

[[record]]
compound = "[2H]C([2H])([2H])NC(=O)c1nnc(NC(=O)NC)cc1Nc1nccc2c1N(C)C([2H])([2H])c1cn(C)nc1-2"
result = "> 7.52"


Exercise: Tell me the measured pIC50 of [2H]C([2H])([2H])NC(=O)c1nnc(NC(=O)C2CC2)cc1Nc1cccc2c1N(C)Cc1cn(C)nc1-2 , please.
Solution: > 7.52

Exercise: Name the reported pIC50 value associated with the compound [2H]C([2H])([2H])NC(=O)c1nnc(NC(=O)C2CC2)cc1Nc1nccc2c1N(C)[C@@H](C)c1cn(C)nc1-2 (single isomer, unassigned)
Solution: 6.52 to 7.52

Exercise: What measured pIC50 goes with CN1Cc2cn(C)nc2-c2cccc(Nc3cc(NC(=O)C4CC4)nc4[nH]n(C)c(=O)c34)c21 ?
Solution: > 7.52

Exercise: I am curious: what pIC50 value has been reported for CNC(=O)c1nnc(NC(=O)C2CC2)cc1Nc1cccc2c1OC(C)c1cn(C)nc1-2 (centres unmarked) ?
Solution: 6.52 to 7.52

Exercise: So what does the record say about pIC50 for [2H]C([2H])([2H])NC(=O)c1nnc(NC(=O)C2CC2)cc1Nc1nccc2c1N(C)[C@H](C)c1cn(C)nc1-2 (single isomer, unassigned) ?
Solution: > 7.52

Exercise: Can you share its pIC50? I mean this compound: [2H]C([2H])([2H])NC(=O)c1cnc(NC(=O)C2CC2)cc1Nc1cccc2c1N(C)Cc1cc(C(F)(F)F)nn1-2
Solution: 6.52 to 7.52

Exercise: Given the compound [2H]C([2H])([2H])NC(=O)c1cnc(NC(=O)C2CC2)cc1Nc1cccc2c1N(C)[C@H](C)c1cn(C)nc1-2 (single isomer, unassigned) , what is its reported pIC50?
Solution: > 7.52

Exercise: What pIC50 value was documented for this compound, [2H]C([2H])([2H])NC(=O)c1cnc(Nc2ccc(F)cn2)cc1Nc1cccc2c1OCc1cn(C)nc1-2 ?
Solution: 6.52 to 7.52

Exercise: Would you mind telling me what pIC50 value was observed for [2H]C([2H])([2H])NC(=O)c1cnc(NC(=O)C2CC2)cc1Nc1nccc2c1N(C)C([2H])([2H])c1cn(C)nc1-2 ?
Solution: > 7.52

Exercise: Reported pIC50 for [2H]C([2H])([2H])NC(=O)c1nnc(N(C)C(=O)C2CC2)cc1Nc1nccc2c1N(C)C([2H])([2H])c1cn(C)nc1-2 : what is it?
Solution: > 7.52

Exercise: Which pIC50 is listed for [2H]C([2H])([2H])NC(=O)c1cnc(N2CCN(C(C)C)C2=O)cc1Nc1cccc2c1N(C)C([2H])([2H])c1cn(C)nc1-2 ?
Solution: > 7.52

Exercise: Which pIC50 value is on record for [2H]C([2H])([2H])NC(=O)c1cnc(NC(=O)C2CC2)nc1Nc1cccc2c1N(C)Cc1cn(C)nc1-2 ?
Solution: > 7.52

Exercise: Quick one: pIC50 of [2H]C([2H])([2H])NC(=O)c1cnc(NC(=O)C2CC2)cc1Nc1cccc2c1N(C)C([2H])([2H])c1ccnn1-2 ?
Solution: > 7.52

Exercise: Can you share its pIC50? I mean this compound: [2H]C([2H])([2H])NC(=O)c1cnc(N2CCN(C(C)C)C2=O)cc1Nc1cccc2c1N(C)Cc1cn(C)nc1-2
Solution: > 7.52
